target: Polyunsaturated fatty acid 5-lipoxygenase (Homo sapiens) (UniProt P09917); experiment: Inhibition of human recombinant 5-LOX expressed in insect cells assessed residual activity using arachidonic acid at 42 uM as substrate preincubated for 5 mins followed by substrate addition measured after 20 mins in dark by ferric ion oxidation-xylenol orange method relative to control
Sequence (P09917 whole entry): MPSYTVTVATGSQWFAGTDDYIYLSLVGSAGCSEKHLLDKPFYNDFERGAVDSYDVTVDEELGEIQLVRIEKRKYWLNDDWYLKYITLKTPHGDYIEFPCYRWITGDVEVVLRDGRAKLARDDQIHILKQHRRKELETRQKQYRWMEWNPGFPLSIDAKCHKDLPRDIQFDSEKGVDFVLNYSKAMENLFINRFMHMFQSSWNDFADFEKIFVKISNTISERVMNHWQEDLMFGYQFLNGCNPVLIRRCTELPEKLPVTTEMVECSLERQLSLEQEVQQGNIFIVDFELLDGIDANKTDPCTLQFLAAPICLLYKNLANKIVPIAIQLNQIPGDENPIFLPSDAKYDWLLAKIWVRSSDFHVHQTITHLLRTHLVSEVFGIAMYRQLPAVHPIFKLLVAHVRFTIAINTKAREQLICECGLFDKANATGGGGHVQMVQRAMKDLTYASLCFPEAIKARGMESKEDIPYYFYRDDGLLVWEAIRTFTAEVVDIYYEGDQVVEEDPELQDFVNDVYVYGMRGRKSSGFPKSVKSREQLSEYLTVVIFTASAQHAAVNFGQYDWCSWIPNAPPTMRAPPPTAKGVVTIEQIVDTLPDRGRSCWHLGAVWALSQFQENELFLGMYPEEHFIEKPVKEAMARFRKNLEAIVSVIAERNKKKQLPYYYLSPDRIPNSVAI
measured metric: Activity (%)
Note: unit % is implicit; provide only the numeric part.

Query: Any idea what Activity was measured for CC1(C)CC[C@]2(C(=O)O)CC[C@]3(C)C(=CC[C@@H]4[C@@]5(C)CC[C@H](O)C(C)(C)[C@@H]5CC[C@]43C)[C@@H]2C1 ?
Response: 100

Query: Would you mind telling me what Activity value was observed for CC1(C)[C@@H](O)CC[C@]2(C)[C@H]3CC=C4[C@@H]5C[C@@](C)(C(=O)O)CC[C@]5(C)CC[C@@]4(C)[C@]3(C)CC[C@@H]12 ?
Response: 49
